assay_system: human LPA1 (Homo sapiens, UniProt Q92633)
Construct: expressed in transfected cells
Sequence (Q92633 whole entry): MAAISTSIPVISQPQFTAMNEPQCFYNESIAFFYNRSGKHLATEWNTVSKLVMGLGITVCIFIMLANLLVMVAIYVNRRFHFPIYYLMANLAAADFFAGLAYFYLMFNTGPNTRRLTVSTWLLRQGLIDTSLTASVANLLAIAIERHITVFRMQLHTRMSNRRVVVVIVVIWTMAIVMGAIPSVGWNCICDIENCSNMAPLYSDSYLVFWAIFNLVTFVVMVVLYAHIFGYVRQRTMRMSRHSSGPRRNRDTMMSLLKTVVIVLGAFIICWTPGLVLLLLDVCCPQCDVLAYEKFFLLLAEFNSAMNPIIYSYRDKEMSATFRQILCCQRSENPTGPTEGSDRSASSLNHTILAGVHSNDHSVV
assay_procedure: Antagonistic action on human LPA1: inhibition of LPA-stimulated increase in intracellular calcium ion concentration in human LPA1-CHO cells
Format: cell-based
assay_conditions: LPA 100 nM, Fluo-4/FLIPR calcium signal
experimental_readout: IC50 (nM)

{"columns": ["compound", "IC50 [nM]"],
 "data": [
  ["COc1ccc([C@@H](O)C(=O)N(CCCc2ccccc2)Cc2nc(C(=O)NS(=O)(=O)C(C)C)c(C)s2)cc1 [Example 285]", 32]
]}

(1) CONS(=O)(=O)NC(=O)c1nc(CN(CCCc2ccccc2)C(=O)c2cc(OC)cc(OC)c2)sc1C [Example 134]
(2) CCS(=O)(=O)NC(=O)c1nc(CN(CCCc2cccs2)C(=O)[C@H](O)c2ccc(OC)cc2)sc1C [Example 272]
Returns: the argument ( 1 or 2 ) having the larger IC50. Reply with the label of the item you choose. 2
